- ASSAYED SYSTEM: hOGA (Homo sapiens, UniProt O60502)
- Construct: The gene construct encoding the full-length human OGA fused to N-terminal His6-tag; His6 (N); made in house
- Sequence (O60502 whole entry, the tested form may be a part): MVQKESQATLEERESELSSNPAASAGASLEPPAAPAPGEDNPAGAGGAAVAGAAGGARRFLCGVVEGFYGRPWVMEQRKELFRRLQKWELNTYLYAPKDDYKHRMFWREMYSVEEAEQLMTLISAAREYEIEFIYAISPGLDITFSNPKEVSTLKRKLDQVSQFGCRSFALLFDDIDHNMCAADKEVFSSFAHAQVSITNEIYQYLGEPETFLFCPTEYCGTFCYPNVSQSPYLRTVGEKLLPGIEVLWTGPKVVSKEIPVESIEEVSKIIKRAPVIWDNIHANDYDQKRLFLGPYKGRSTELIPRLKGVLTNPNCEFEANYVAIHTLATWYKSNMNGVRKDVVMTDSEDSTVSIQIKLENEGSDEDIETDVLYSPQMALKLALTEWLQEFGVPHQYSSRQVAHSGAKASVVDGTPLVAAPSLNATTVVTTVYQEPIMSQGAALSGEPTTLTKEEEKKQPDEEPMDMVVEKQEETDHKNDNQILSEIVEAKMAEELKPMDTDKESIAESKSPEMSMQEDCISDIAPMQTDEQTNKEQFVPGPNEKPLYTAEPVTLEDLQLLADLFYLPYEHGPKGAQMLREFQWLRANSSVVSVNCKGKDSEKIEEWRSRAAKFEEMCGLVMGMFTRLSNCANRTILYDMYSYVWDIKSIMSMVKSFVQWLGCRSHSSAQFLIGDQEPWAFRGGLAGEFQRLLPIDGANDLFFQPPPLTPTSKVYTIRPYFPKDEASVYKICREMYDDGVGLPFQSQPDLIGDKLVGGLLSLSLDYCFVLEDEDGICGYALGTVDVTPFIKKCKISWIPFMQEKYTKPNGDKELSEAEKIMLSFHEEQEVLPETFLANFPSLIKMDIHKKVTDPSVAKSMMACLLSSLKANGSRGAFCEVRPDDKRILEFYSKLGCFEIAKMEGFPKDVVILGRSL
- EXPERIMENTAL DETAILS: hOGA inhibition, 4-MU-GlcNAc fluorescent substrate, Dixon plots (competitive model)
- Format: biochemical
- COND: ratio defines selectivity towards hOGA
QUANTITY: Ki(hHexB)/Ki(hOGA)

I: CC(=O)N[C@H]1/C(=N/NS(=O)(=O)c2cccc3ccccc23)O[C@H](CO)[C@@H](O)[C@@H]1O
II: CC(=O)N[C@H]1C(=NNS(=O)(=O)c2ccc3ccccc3c2)O[C@H](CO)[C@@H](O)[C@@H]1O
Req: Which value of Ki(hHexB)/Ki(hOGA) is greater, the one for I or the one for II ? Give the label under which the chosen entry appears.
Resp: II

1: CC(=O)N[C@H]1C(=NNS(=O)(=O)c2ccc(Cl)cc2)O[C@H](CO)[C@@H](O)[C@@H]1O
2: CC(=O)N[C@H]1C(=NNS(=O)(=O)c2ccc(C(F)(F)F)cc2)O[C@H](CO)[C@@H](O)[C@@H]1O
Req: Which value of Ki(hHexB)/Ki(hOGA) is greater, the one for 1 or the one for 2 ? Give the label under which the chosen entry appears.
Resp: 1
(1: 0.56, 2: 0.21)

Origin of measurements: paper PMC8834866
